Provenance of the data: PubChem BioAssay (NCI)

# System: NCI-H23 lung
# Test Protocol: NCI-60 one-dose screen, 48 h (100 = growth as untreated, 0 = no growth, -100 = all killed)
# Assay Conditions: 10 µM unless noted
The panel holds about 83,000 compounds, 20% with a hit somewhere; the sample as a whole holds those more often.
Please respond with reported growth for every item in the list.
Kindly provide the numeric value in % only, without the unit symbol.

// query Report its growth with NCI-H23 lung as the test system: CN(C)C(C(N)=O)c1ccc(Cl)cc1 (stereo not drawn)
// result 104

// query Report its growth with NCI-H23 lung as the test system: "COc1cc(NCCN(CC(C)C)C2CCCC2)c2ncccc2c1"
// result 81.1

// query Report its growth with NCI-H23 lung as the test system: "O=C(CN1CCOCC1)Nc1ccc2ncnc(Nc3ccc(Oc4cccc(F)c4)c(Cl)c3)c2c1"
// result 96.7

// query Report its growth with NCI-H23 lung as the test system: "[2H]C1([2H])NC([2H])([2H])C([2H])([2H])N(c2ccc(Nc3ncc4cc(C(=O)N(C)C)n(C5CCCC5)c4n3)nc2)C1([2H])[2H]"
// result 69.9

// query Report its growth with NCI-H23 lung as the test system: "COc1cccc2cc(-c3cc4ccccc4[nH]3)/c(=N/C(=S)Nc3ccc(C)cc3)oc12"
// result 67.9

// query Report its growth with NCI-H23 lung as the test system: "CN1CCN(c2cc(F)c(NC3=C(Cl)C(=O)c4ncccc4C3=O)c(F)c2)CC1"
// result -61.2

// query Report its growth with NCI-H23 lung as the test system: "CN1CCN(CCCNc2nccc(-c3c(-c4ccc(F)c(O)c4)nc4sccn34)n2)S1(=O)=O"
// result 94.2

// query Report its growth with NCI-H23 lung as the test system: COC(=O)C1=C(C(=O)ONCCN(C)C)C2C=CC1(C(Cc1ccccc1)Nc1ccc(F)cc1)O2 (stereo not drawn)
// result 91.6

// query Report its growth with NCI-H23 lung as the test system: "O=C1/C(=C/c2ccc(O)cc2)COc2ccc(-c3ccccc3)cc21"
// result 95.9

// query Report its growth with NCI-H23 lung as the test system: "C=C1C(=O)O[C@H]2[C@H]1CC/C(COC(=O)/C=C/c1c[nH]c3ccccc13)=C\CC[C@@]1(C)O[C@@H]21"
// result -53

// query Report its growth with NCI-H23 lung as the test system: "Nc1c(Cl)cc([N+](=O)[O-])cc1Br"
// result 93

// query Report its growth with NCI-H23 lung as the test system: CCCC1C(C(=O)OCC)=C(N)Oc2cc(O)ccc21 (stereo not drawn)
// result 90.7

// query Report its growth with NCI-H23 lung as the test system: "COc1ccc(C(=O)c2cc3c(N)c(C(=O)Nc4cccc5ccccc45)sc3nc2C)cc1"
// result 30.7

// query Report its growth with NCI-H23 lung as the test system: "CC1(C)CC[C@]2(C(=O)NCC#CCN3CCOCC3)CC[C@]3(C)C(=CC[C@@H]4[C@@]5(C)Cc6c([nH]c7ccccc67)C(C)(C)[C@@H]5CC[C@]43C)[C@@H]2C1"
// result 95.9

// query Report its growth with NCI-H23 lung as the test system: CN(Cc1ccccc1)c1nc(Cl)c(C2CC(c3ccc(Cl)cc3)=Cc3[nH][nH]c(=O)c32)s1 (stereo not drawn)
// result 98.3

// query Report its growth with NCI-H23 lung as the test system: "N#Cc1cc(-c2nc3ccccc3s2)c(=O)n(NS(=O)(=O)c2ccc(Cl)cc2)c1N"
// result 94.9

// query Report its growth with NCI-H23 lung as the test system: "COc1cc2ncnc(Nc3ccc(C(=O)/C=C/c4ccc(C(F)(F)F)cc4F)cc3)c2cc1OC"
// result 99.5

// query Report its growth with NCI-H23 lung as the test system: "CCCCCCCC(=O)Nc1nc2[nH]c(CN3CCN(Cc4cccc(I)c4)CC3)c(CN3CCN(Cc4cccc(I)c4)CC3)c2c(=O)[nH]1"
// result -24.5
